Values from paper PMC10920384

- Test system: α-glucosidase from Saccharomyces cerevisiae
- assay method text: α-Glucosidase inhibitory assay
- Format: biochemical
- condition set: 10 μg/mL; mean ± SD, N = 3
Outcome label depends on % Inhibition at 10 μg/mL (α-glucosidase) relative to 30%: at/above gives yes, below gives no.

Examples with answers:
compound: O=C1C[C@@H](c2ccccc2)Oc2cc(O)cc(O)c21 [Compound 8, pinocembrin]
cat: yes
--
compound: CC(C)=CCCC(C)=CCCC(C)=CCc1c[nH]c2ccccc12 [Compound 9, 3-Farnesyl indole]
cat: no
--
compound: O=c1cc(-c2ccccc2)oc2cc(O)cc(O)c12 [Compound 5, chrysin]
cat: no
--
compound: COc1cc(OC)c2c(c1O)OC(c1ccccc1)CC2=O (stereo not drawn) [Compound 7, 8-hydroxy-5,7-dimethoxyflavanone]
cat: yes
--
compound: COc1cc2c(c(O)c1OC)C(=O)C[C@@H](c1ccccc1)O2 [Compound 10, onysilin]
cat: no

As a next step, examine the compound that follows.
Enquiry: Does the reported % Inhibition at 10 μg/mL (α-glucosidase) for COc1cc(OC)c(C(=O)/C=C/c2ccccc2)c(O)c1O [Compound 4, 2′,3′-dihydroxy-4′,6′-dimethoxychalcone] fall at or above the 30% mark?
Return: yes
